The values you see were collected from PubChem BioAssay (NCI).

Listed below: TGI values for each entry.
tested on: NCI/ADR-RES ovarian; test: NCI tumour cell line growth inhibition, 48 h

Example compounds with recorded TGI:
COMPOUND | MEASURED TARGET | TGI
COC(=O)C1C(=O)CC(C)(O)C(C(=O)OC)C1c1ccc(N(C)C)cc1 (configuration not stated) | NCI/ADR-RES ovarian | > 100 µM
O=Nc1c(-c2c(O)[nH]c3ccc(I)cc23)[nH]c2ccccc12 | NCI/ADR-RES ovarian | > 63.4 µM
Oc1ccc(Cl)cc1-c1cc(-c2ccccc2)nc(=S)[nH]1 | NCI/ADR-RES ovarian | > 100 µM

// fetch TGI given entry NC1CCCCC1NCCNC1CCCCC1N (configuration not stated)
> 100 µM

// fetch TGI given entry c1ccc2c(Nc3ncco3)cccc2c1
> 10 µM

// fetch TGI given entry COC(=O)[C@@H](NS(=O)(=O)CC12CCC(CC1)C2(C)C)C(C)(C)C
> 100 µM

// fetch TGI given entry CN1CCN(Cc2ccc(NC(=O)c3[nH]ncc3Nc3ncnc4[nH]ccc34)cc2)CC1
> 100 µM

====

system: SNB-75 CNS; assay: NCI tumour cell line growth inhibition, 48 h
READOUT LABEL: TGI

COMPOUND | TGI
O=C(O)CSC1=NNC2(C(=O)N1)c1ccccc1-c1ccccc12 | > 10 µM
COc1ccc(OC)c2c(C)ccnc12 | > 100 µM

// fetch TGI given entry CC(C)(C)c1ccc(C2CC(=O)C3=C(C2)Nc2ccccc2N(C(=O)c2ccccc2Cl)C3c2ccc(F)cc2)cc1 (stereo not given)
> 100 µM

// fetch TGI given entry COc1ccc(-n2c(N)c(C#N)c(C#N)c2-c2ccco2)cc1
> 100 µM

// fetch TGI given entry CCC(C)(O)c1cn(-c2ccc(Cl)cc2)nn1 (stereo not given)
> 100 µM

// fetch TGI given entry C1CSC[C@H]2COC[C@@H](CSCCS1)S2
> 100 µM

// fetch TGI given entry O=c1[nH]nc(-c2ccccc2)c2[nH]c3c(c12)Cc1ccccc1-3
> 43.3 µM

// fetch TGI given entry CC(C)N(C(=O)C12C3C4C5(C(=O)O)C(C1C35I)C42C(=O)O)C(C)C (stereo not given)
> 100 µM

// fetch TGI given entry Cc1c(OCc2cccc3ccccc23)ccc2c(=O)cc(SCCN3CCOCC3)oc12
> 100 µM

// fetch TGI given entry CN1CCN(Cc2ccc(NC(=O)c3[nH]ncc3Nc3ncnc4[nH]ccc34)cc2)CC1
0.371 µM

====

test system: HOP-92 NSCLC; test: NCI tumour cell line growth inhibition, 48 h; in the data active = GI50 below about 0.43 µM; inactive = the rest
// classify into active, inactive

Use these answered entries as a reference point.
COMPOUND | CLASS ASSIGNMENT
Cc1ccc2oc(=O)c3c(O)c4cccc(OC5OC(C)C6O[C@@H](c7ccccc7)OC6C5OC5OC(C)C(O)C(O)C5O)c4c4oc(=O)c1c2c34 (some centres undefined) | active
C=CC1C(CC2OC(CO)C(O)C(O)C2O)OC=C2C(=O)OCCC21O (centres undefined) | inactive
Nc1c(C(=O)c2cccc(C(O)CO)c2)cnn1-c1ccc(F)cc1 (centres undefined) | inactive

With those in mind, consider the next compound.
How did this test come out for CC12CCC(=O)C(O1)C1C(=O)c3ccc4c(ccc5ccccc54)c3C(=O)C12 (centres undefined) ?
inactive

====

system: MDA-MB-435
// classify into label 1 (active), label 0 (inactive)

Use these answered entries as a reference point.
STRUCTURE SMILES STRING | CLASS ASSIGNMENT
CC(=O)c1c[nH]c2ccc(-c3ccnc(Nc4ccc(NC(=O)C5CCCC5)c(CN5CCOCC5)c4)n3)cc12 | label 1
CCN1CCN(c2cc(C(=O)Nc3cccc(Nc4ccc5c(OC)cccc5n4)c3)cc(C(F)(F)F)c2)CC1 | label 0
Cc1cc(=O)[nH]c(N/N=C/c2ccccc2O)n1 | label 0

With those in mind, consider the next molecule.
How did this test come out for O=C(O)COc1ccc(OCC(=O)O)cc1 ?
label 0

====

Listed below: TGI values for each entry.
tested on: TK-10 renal; assay: NCI tumour cell line growth inhibition, 48 h

STRUCTURE SMILES STRING | MEASURED TARGET | TGI
COc1ccc(CSC2=C(C#N)C(=O)NC3(CCCCC3)S2)cc1 | TK-10 renal | > 100 µM
COC(=O)[C@@H](NS(=O)(=O)CC12CCC(CC1)C2(C)C)C(C)(C)C | TK-10 renal | > 100 µM
Cc1nc2ccc(Br)cc2c(=O)n1-c1ccc(N)cc1 | TK-10 renal | > 100 µM
CN1CCN(CCCOc2ccc3nc(Nc4ccc(F)c(F)c4)ccc3c2)CC1 | TK-10 renal | 4.23 µM
COc1cccc(NC(=O)CC(=O)n2nc(-c3ccccc3)c(N=Nc3ccc(Cl)cc3)c2-c2ccccc2)c1 | TK-10 renal | > 100 µM

# context switch: different compound, same TGI
Give TGI; test system TK-10 renal; compound COc1ccc2c(c1O)[C@@]13CCCC=C1[C@@H](C2)[N+](C)(C)CC3
> 100 µM

====

Listed below: TGI values for each entry.
test system: MCF7 breast; assay: NCI tumour cell line growth inhibition, 48 h

Example compounds with recorded TGI:
COMPOUND | TGI
Cc1cn(C2CC(COCc3ccccc3)N(CCO[Si](C)(C)C(C)(C)C)O2)c(=O)[nH]c1=O (centres undefined) | 33 µM
O=Nc1c(-c2c(O)[nH]c3ccc(I)cc23)[nH]c2ccccc12 | > 19.9 µM
CC1=C(CO)C(=O)O[C@@H]([C@@H](C)[C@H]2CC[C@H]3[C@@H]4C[C@H]5O[C@]56[C@@H](O)C=CC(=O)[C@]6(C)[C@H]4CC[C@]23C)C1 | 2.43 µM
COc1ccc(/C=C2\CCCc3ccccc3C2=O)cc1 | 99.2 µM
CCOC(=O)c1c(N2CCCC2)[nH]c(=O)c(C(c2ccc(N(C)C)cc2)c2c(O)c(C(=O)OCC)c(N3CCCC3)[nH]c2=O)c1O | > 100 µM
Nc1c(C(=O)c2cccc(C(O)CO)c2)cnn1-c1ccc(F)cc1 (centres undefined) | > 25 µM
CCOC(=O)CCc1cn2cc(Br)nc(OC)c2n1 | > 100 µM
Nc1nc(Cl)nc2c1ncn2C1OC(CO)C(O)C1F (centres undefined) | > 100 µM

# context switch: different compound, same TGI
// fetch TGI given entry c1cc2cc3c4c5c(cc6ccc7cc8cc9c%10c8c8c7c6c5c8c5c%10c(c1C9N1CCOCCOCCOCCOCCOCC1)c2c45)C3 (centres undefined)
> 100 µM

====

test system: COLO 205 colon; assay: NCI tumour cell line growth inhibition, 48 h
Listed below: TGI values for each entry.

// fetch TGI given entry COc1cc(S(=O)(=O)Nc2nc(-c3ccc(N4C(=O)C(C)SC4c4ccccc4O)cc3)cs2)ccc1Cl (centres undefined)
> 100 µM

// fetch TGI given entry N#C/C(=C/N1CCN(C(=O)c2ccco2)C1=S)C(=O)Nc1ccc(Cl)cc1
> 50 µM

// fetch TGI given entry Cc1ccc(N2C(=O)C3CSCN3C2=O)cc1 (centres undefined)
> 100 µM

// fetch TGI given entry Cc1cc2nc3ccccc3n2c2ccccc12
> 10 µM

// fetch TGI given entry N#CC1=C(N)NC(N2CCOCC2)=NC12Nc1ccccc1O2 (centres undefined)
> 100 µM

====

test system: SK-MEL-2 melanoma; assay: NCI tumour cell line growth inhibition, 48 h
READOUT LABEL: TGI

Example compounds with recorded TGI:
COMPOUND | MEASURED TARGET | TGI
C=C(CN(CC)CC)C1(c2ccccc2)CC2(CCCC2)C(=O)O1 (stereo unspecified) | SK-MEL-2 melanoma | > 100 µM
CCOc1ccc2nc3nc(=O)[nH]c(C)c3c(NC(C)(CO)CO)c2c1 | SK-MEL-2 melanoma | > 100 µM
COC1=C(OC)C(=O)C(C/C=C(\C)CC/C=C(\C)CC/C=C(\C)CC/C=C(\C)CC/C=C(\C)CC/C=C(\C)CC/C=C(\C)CC/C=C(\C)CC/C=C(\C)CCC=C(C)C)=C(C)C1=O | SK-MEL-2 melanoma | > 100 µM
O=C1NC(=O)C(c2cccc(Cl)c2)=C1Nc1ccc(Cl)c(C(=O)O)c1 | SK-MEL-2 melanoma | > 25 µM
O=C(Nc1ccc(-n2cc(-c3ccncc3)c(-c3ccc(O)c(Cl)c3)n2)cc1)c1ccc(Cl)c(C(F)(F)F)c1 | SK-MEL-2 melanoma | 3.32 µM

// fetch TGI given entry O=C1CCCCC/C1=C\c1cccc(F)c1
> 100 µM

// fetch TGI given entry CCCC1=C(OC)C(=O)c2c(C)cc(Cl)nc2C1=O
24.4 µM

// fetch TGI given entry NC(N)=NC(N)=Nc1ccc(C(=O)O)cc1
> 100 µM

// fetch TGI given entry O=C1C(Cl)=C(Cl)C(=O)N1c1ccc(Cl)c(Cl)c1Cl
> 100 µM

// fetch TGI given entry Cc1cc2nc3ccccc3n2c2ccccc12
> 10 µM

// fetch TGI given entry Cc1ccc(-n2nncc2[Si](C)(C)C)s1
> 100 µM

// fetch TGI given entry Cc1cc(N2CCCCC2)nc2ccc(Cc3ccc4nc(N5CCCCC5)cc(C)c4c3)cc12
> 100 µM

// fetch TGI given entry O=C1CC(c2ccsc2)n2cccc21 (stereo unspecified)
> 100 µM
